Recorded measurements of IC50, one per entry
- Experimental System: Human TRPC6 (Homo sapiens, UniProt Q9Y210)
- Construct: expressed in transfected cells
- Test Details: Evaluation of TRPC6 channel inhibitory activity (1), FLIPR Calcium 5 Assay Kit, OAG stimulation (Compound Nos. 1-1293)
- Type: cell-based
- Condition Set: Human TRPC6 stably-expressing cells, OAG 30 μM, FLIPR Calcium 5 Assay Kit; read-out: Inhibitory activity (pIC50 class) (converted)

Study these solved cases before continuing.
Compound Structure | IC50
N#Cc1ccc(-c2ncc(CN)cn2)c(Oc2ccc(N3CCCC3)nc2)c1 | > 1000 nM
Cc1nc(Oc2cc(C#N)ccc2-c2ccc(CCNCCC(=O)O)cc2)cc(N2CCOCC2)n1 | > 1000 nM
Cn1nc(C2CC2)cc1Oc1cc(C#N)ccc1-c1ccc(C(=O)N2CCNCC2)cn1 | > 1000 nM
Cn1nc(N2CCCCC2)cc1Oc1cc(C#N)ccc1-c1ccc(CCN)cn1 | < 10 nM
Cc1nc(Oc2cc(C#N)ccc2-c2ccc(CCN)cc2)cc(C2CCCC2)n1 | < 10 nM

Ask: Tell me IC50 reported for Cn1nc(-c2ccncn2)cc1Oc1cc(C#N)ccc1-c1ncc(CN)cn1
Result: < 10 nM

Ask: Tell me IC50 reported for Cn1ccc(-c2cc(Oc3cc(C#N)ccc3-c3ncc(CN)cn3)n(C)n2)n1
Result: 10 to 1000 nM

Ask: Tell me IC50 reported for Cc1nn(CC(F)(F)F)cc1Oc1cc(F)ccc1-c1ncc(CCN)cn1
Result: < 10 nM

Ask: Tell me IC50 reported for N#Cc1ccc(-c2ccc(CCN)cc2)c(Oc2cc(N3CCOCC3)cnn2)c1
Result: 10 to 1000 nM

---

- Experimental System: Human TRPC6 (Homo sapiens)
- Construct: expressed in transfected cells
- Test Details: Evaluation of TRPC6 channel inhibitory activity (1), FLIPR Calcium 5 Assay Kit, OAG stimulation (Compound Nos. 1-1293)
- Type: cell-based
- Condition Set: Human TRPC6 stably-expressing cells, OAG 30 μM, FLIPR Calcium 5 Assay Kit; read-out: Inhibitory activity (pIC50 class) (converted)
Endpoint Label: IC50

Study these solved cases before continuing.
Compound | Data Value
Cn1nc(C2CC2)cc1Oc1cc(C#N)ccc1-c1nnc(CN)s1 | > 1000 nM
Cc1nn(CC(C)C)cc1Oc1cc(C#N)ccc1-c1ncc(CN)cn1 | < 10 nM
CC(C)N(C)c1cc(Oc2cc(C#N)ccc2-c2ncc(CCN)cn2)n(C)n1 | < 10 nM

Ask: Tell me IC50 reported for Cn1nc(C2CC2)cc1Oc1cc(C#N)ccc1-c1nc(C(O)CN)cs1 (stereo not shown)
Result: 10 to 1000 nM

---

Recorded measurements of IC50, one per entry
- Experimental System: Human TRPC6 (Homo sapiens, UniProt Q9Y210)
- Construct: expressed in transfected cells
- Test Details: Evaluation of TRPC6 channel inhibitory activity (1), FLIPR Calcium 5 Assay Kit, OAG stimulation (Compound Nos. 1-1293)
- Assay type: cell-based
- Condition Set: Human TRPC6 stably-expressing cells, OAG 30 μM, FLIPR Calcium 5 Assay Kit; read-out: Inhibitory activity (pIC50 class) (converted)
- Procedure: Evaluation of TRPC6 Channel Inhibitory Activity (1) (Compound Nos. 1-1293) In order to investigate TRPC6 channel inhibitory activity of the compounds, evaluation was conducted using FLIPR® Calcium 5 Assay Kit (Molecular Devices) in accordance with the following procedure. […] A volume of 12.5 μL of a compound solution was added into each well while the fluorescence was measured with FLIPR tetra. […]

Compound | Experimental System | Data Value
Cc1nc(COC(C)C)cn1Cc1cc(C#N)ccc1-c1ccc(CCN)cc1 [compound 1126] | Human TRPC6 (Homo sapiens, UniProt Q9Y210) | > 1000 nM
Cc1nc(Oc2cc(C#N)ccc2-c2ccc(CCN)cc2)cc(-c2cscn2)n1 [Compound 30] | Human TRPC6 (Homo sapiens, UniProt Q9Y210) | < 10 nM
Cn1nc(-c2ccccn2)cc1Oc1cc(C#N)ccc1-c1cnc(CN)s1 [compound 608] | Human TRPC6 (Homo sapiens, UniProt Q9Y210) | > 1000 nM

Ask: Tell me IC50 reported for Cc1nc(Oc2cc(C#N)ccc2-c2ccc(CCN)cc2)cc(-c2ccn(C)c2)n1 [Compound 29]
Result: 10 to 1000 nM

Ask: Tell me IC50 reported for Cc1cc(Oc2cc(C#N)ccc2-c2ncc(CN)cn2)no1 [compound 676]
Result: > 1000 nM

Ask: Tell me IC50 reported for COCCCN(C)c1cc(Oc2cc(C#N)ccc2-c2ncc(CCN)cn2)n(C)n1 [compound 800]
Result: 10 to 1000 nM

Ask: Tell me IC50 reported for Cc1nc(Oc2cc(C#N)ccc2-c2nc([C@H](O)CN)cs2)cc(-c2ccccc2)n1 [Compound 223]
Result: 10 to 1000 nM

Ask: Tell me IC50 reported for Cc1cc(Oc2cc(C#N)ccc2-c2ccc([C@H](O)CN)cn2)cc(N2CCO[C@@H](C)C2)n1 [compound 529]
Result: < 10 nM

---

- Experimental System: Human TRPC6 (Homo sapiens)
- Construct: expressed in transfected cells
- Sequence (Q9Y210 1-931): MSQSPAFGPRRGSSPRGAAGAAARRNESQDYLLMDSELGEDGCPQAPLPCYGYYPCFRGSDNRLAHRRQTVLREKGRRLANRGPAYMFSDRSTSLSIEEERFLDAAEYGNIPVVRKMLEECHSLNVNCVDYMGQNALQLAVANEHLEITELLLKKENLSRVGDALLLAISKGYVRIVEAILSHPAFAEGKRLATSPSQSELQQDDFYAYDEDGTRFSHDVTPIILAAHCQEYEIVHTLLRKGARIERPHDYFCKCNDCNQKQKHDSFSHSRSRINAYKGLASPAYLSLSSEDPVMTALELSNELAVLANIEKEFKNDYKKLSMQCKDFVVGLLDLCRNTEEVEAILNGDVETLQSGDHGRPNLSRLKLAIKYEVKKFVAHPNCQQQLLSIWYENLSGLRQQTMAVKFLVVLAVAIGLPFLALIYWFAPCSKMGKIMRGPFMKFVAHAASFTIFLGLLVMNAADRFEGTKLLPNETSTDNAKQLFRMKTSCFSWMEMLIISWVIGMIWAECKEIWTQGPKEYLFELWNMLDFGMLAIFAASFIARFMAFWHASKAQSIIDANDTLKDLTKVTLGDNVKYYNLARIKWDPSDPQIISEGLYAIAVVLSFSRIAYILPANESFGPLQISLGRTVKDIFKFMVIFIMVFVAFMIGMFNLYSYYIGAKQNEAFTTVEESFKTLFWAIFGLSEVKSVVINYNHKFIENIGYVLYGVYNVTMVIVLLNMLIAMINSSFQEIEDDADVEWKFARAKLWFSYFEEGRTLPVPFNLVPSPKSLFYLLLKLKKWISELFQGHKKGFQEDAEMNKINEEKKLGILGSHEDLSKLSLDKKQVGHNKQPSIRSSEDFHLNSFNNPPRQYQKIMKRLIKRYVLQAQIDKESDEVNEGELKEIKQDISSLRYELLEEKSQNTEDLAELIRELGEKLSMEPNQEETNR
- Test Details: Evaluation of TRPC6 channel inhibitory activity (1), FLIPR Calcium 5 Assay Kit, OAG stimulation (Compound Nos. 1-1293)
- Type: cell-based
- Condition Set: Human TRPC6 stably-expressing cells, OAG 30 μM, FLIPR Calcium 5 Assay Kit; read-out: Inhibitory activity (pIC50 class) (converted)
- Procedure: Evaluation of TRPC6 Channel Inhibitory Activity (1) (Compound Nos. 1-1293) In order to investigate TRPC6 channel inhibitory activity of the compounds, evaluation was conducted using FLIPR® Calcium 5 Assay Kit (Molecular Devices) in accordance with the following procedure. […] A volume of 12.5 μL of a compound solution was added into each well while the fluorescence was measured with FLIPR tetra. […]
Endpoint Label: IC50

Study these solved cases before continuing.
Compound | Experimental System | Data Value
NCc1cnc(-c2ccc(F)cc2C(=O)c2cnn(C3CCC3)c2)nc1 [compound 1109] | Human TRPC6 (Homo sapiens) | 10 to 1000 nM
N#Cc1ccc(-c2ccc(C(O)CN)cc2)c(Cn2cnc(-c3ccccc3)c2)c1 (stereo not drawn) [compound 1129] | Human TRPC6 (Homo sapiens) | < 10 nM
Cn1nc(-c2ccccc2)cc1Oc1cc(C#N)ccc1-c1ccc(C(O)C(C)(C)N)cn1 (stereo not drawn) [compound 301] | Human TRPC6 (Homo sapiens) | < 10 nM
CN(C)c1cc(Oc2cc(C#N)ccc2-c2ncc([C@@H](F)CN)cn2)n(C)n1 [compound 906] | Human TRPC6 (Homo sapiens) | < 10 nM
CC(C)Cn1cc(Oc2cc(C#N)ccc2-c2ncc(CCN)cn2)c(C(F)(F)F)n1 [compound 955] | Human TRPC6 (Homo sapiens) | < 10 nM

Ask: Tell me IC50 reported for Cn1nc(C2CCC2)cc1Oc1cc(C#N)ccc1-c1cnc(C(O)CN)cn1 (stereo not drawn) [Compound 287]
Result: < 10 nM

Ask: Tell me IC50 reported for Cc1nc(N2CCOCC2)cc(N(C)c2cc(C#N)ccc2-c2ccc3c(c2)COC32CN(C)C2)n1 [Compound 5]
Result: > 1000 nM

Ask: Tell me IC50 reported for Cc1cc(Oc2cc(C#N)ccc2-c2ncc(CCN)cn2)cc(-c2ncco2)n1 [compound 596]
Result: 10 to 1000 nM

Ask: Tell me IC50 reported for Cc1nc(C2CCOCC2)cn1Cc1cc(C#N)ccc1-c1ncc([C@H](O)CN)cn1 [compound 1166]
Result: > 1000 nM

Ask: Tell me IC50 reported for Cn1nc(C2CC2)cc1Oc1cc(C#N)ccc1-c1cc(C(=O)N2CCC(N)CC2)ccn1 [compound 553]
Result: > 1000 nM

Ask: Tell me IC50 reported for Cn1nc(N2CCCC2)cc1Oc1cc(F)ccc1-c1ccc(CN)cn1 [compound 996]
Result: < 10 nM

Ask: Tell me IC50 reported for CCCc1cc(Oc2cc(C#N)ccc2-c2ncc(CCN)cn2)n(C)n1 [Compound 260]
Result: < 10 nM
